Tested on: COLO 205 colorectal tumor cells
Assay: Tumor cell viability inhibition assay (CellTiter-Glo 2.0, 72 hours)
Format: cell-based
Conditions: Homo sapiens, COLO 205, 72 h, COLO 205 cell viability
experimental-readout: IC50

[[record]]
molecule = "Cc1cc(-c2cc(Cl)ccc2OCCn2c(C)nc3c(c2=O)C[C@@H](N(C)[C@H]2CC[C@@](C)(O)CC2)CC3)c2scc(C(=O)O)c2n1 (single isomer, unassigned) [Compound 225]"
experimental_readout = "IC50"
result = "> 20 µM"

[[record]]
molecule = "Cc1cc(-c2cc(Cl)ccc2OCCn2c(C)nc3c(c2=O)CC(N2CCC4(CN(C)C4)C2)CC3)c2scc(C(=O)O)c2n1 (stereo not shown) [Compound 34]"
experimental_readout = "IC50"
result = "> 20 µM"

[[record]]
molecule = "Cc1cc(-c2cc(Cl)ccc2OCCn2c(C)nc3c(c2=O)CC(N(C)C2CC(F)(F)C2)CC3)c2scc(C(=O)NS(C)(=O)=O)c2n1 (stereo not shown) [Compound 63]"
experimental_readout = "IC50"
result = "< 5 µM"


Look at each molecule and report its IC50.
1. Cc1cc(-c2cc(Cl)ccc2OCCn2c(C)nc3c(c2=O)C[C@H](N2C[C@H]4CC(F)(F)[C@H]4C2)CC3)c2scc(C(=O)O)c2n1 (single isomer, unassigned) [Compound 147]
2. Cc1cc(-c2cc(Cl)ccc2OCCn2c(C)nc3c(c2=O)C[C@H](N2CCC[C@@]4(C2)CC4(F)F)CC32CC2)c2scc(C(=O)O)c2n1 (single isomer, unassigned) [Compound 580]
3. Cc1cc(-c2cc(Cl)ccc2OCCn2c(C)nc3c(c2=O)CC(N(C)CC(F)(F)F)CC3)c2scc(C(=O)O)c2n1 (stereo not shown) [Compound 54]
4. Cc1cc(-c2cc(Cl)ccc2OCCn2c(C)nc3c(c2=O)CC(N2CC4COCC4C2)CC3)c2scc(C(=O)O)c2n1 (stereo not shown) [Compound 19]
5. Cc1nc2c(c(=O)n1CC#Cc1ccc(Cl)cc1-c1ccnc3c(C(=O)O)csc13)C[C@H](N1CCC[C@]3(C1)CC3(F)F)CC2 (single isomer, unassigned) [Compound 570]
6. Cc1nc2c(c(=O)n1CCOc1ccc(Cl)cc1-c1ccnc(CC(=O)O)c1)CC(N(C)CC1CC(F)(F)C1)CC2 (stereo not shown) [Compound 118]

## Result
1. < 5 µM
2. < 5 µM
3. 5 to 20 µM
4. < 5 µM
5. < 5 µM
6. > 20 µM

Provide the reported IC50 of each entry below, same order.
1. Cc1cc(-c2cc(Cl)ccc2OCCn2c(C)nc3c(c2=O)CC(N2CCC(OC(F)(F)F)CC2)CC3)c2scc(C(=O)O)c2n1 (stereo not shown) [Compound 178]
2. Cc1cc(-c2cc(Cl)ccc2OCCn2c(C)nc3c(c2=O)C[C@@H](N2CCC[C@H](F)C2)CC3)c2scc(C(=O)O)c2n1 (single isomer, unassigned) [Compound 282]
3. Cc1cc(-c2cc(Cl)ccc2OCCn2c(C)nc3c(c2=O)C[C@@H](N2CCC[C@@]4(CN(CC(F)(F)F)CC4(F)F)C2)CC3)c2scc(C(=O)O)c2n1 (single isomer, unassigned) [Compound 514]
4. Cc1cc(-c2cc(Cl)ccc2OCCn2c(C)nc3c(c2=O)C[C@@H](N2CCC(CC(F)(F)F)CC2)CC3)c2scc(C(=O)O)c2n1 (single isomer, unassigned) [Compound 106]

## Result
1: < 5 µM; 2: < 5 µM; 3: > 20 µM; 4: < 5 µM
